System: Molm13
Test: cell viability relative to DMSO control (bortezomib = 0%); higher = less growth inhibition
Settings: 10 nM; 72 h
Structures can show the parent of a compound that is named as a salt.
Measured parameter: cell viability
I'd appreciate it if you included the unit after the number.

Guide cases for cell viability, answers given:
> print(dat)
                                   compound  obs.value
1  O=C1NC(=O)C(c2c[nH]c3ccccc23)=C1c1c[nH]c2ccccc12 [Bisindolylmaleimide IV]       105%
2  C[N+](C)(C)CC(=O)O [Betaine hydrochloride]      86.4%
3         O=C1NC(=O)/C(=C/c2ccc3nccnc3c2)S1       102%

Go through the list and state cell viability for each entry.
1. Cc1cc2c(F)c(Oc3ncnn4cc(OC[C@@H](C)OC(=O)[C@H](C)N)c(C)c34)ccc2[nH]1
2. CC(C)(C)c1cc(C=C(C#N)C(N)=S)cc(C(C)(C)C)c1O
3. CCCCCCCCCCCCC/C=C/[C@@H](O)[C@H](CO)N(C)C
4. NCC(=O)Nc1ccc(-n2nc(C(F)(F)F)cc2-c2ccc3c(ccc4ccccc43)c2)cc1
5. COc1cc(OC)c(/C=C/S(=O)(=O)Cc2ccc(OC)c(OP(=O)(O)O)c2)c(OC)c1
6. CCCCCCCCCCCC(=O)NC[C@]1(C)CCC[C@]2(C)c3ccc(C(C)C)cc3CCC12 (stereo not given in full) [Lauric Acid Leelamide]
7. Nc1ncnc2c1c(-c1cccc(OCc3ccccc3)c1)cn2C1CC(CN2CCCC2)C1 (stereo not given)

1: 101%; 2: 108%; 3: 108%; 4: 114%; 5: 114%; 6: 93%; 7: 103%
